systemUnderTest: T1, Human BCMA (human, UniProt Q02223 1-54, limits assumed)
T1 construct: Soluble analyte in SPR; construct not described; also called huBCMA; B-cell maturation antigen
T1 sequence (looked up): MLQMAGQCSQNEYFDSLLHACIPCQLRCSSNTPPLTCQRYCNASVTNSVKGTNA
testDescription: SPR, IgG immobilised, 25 C
The following binders are listed with their measured koff values.
Kindly answer with a numeric value in s⁻¹, unit omitted.

# example entries with known answers
L1.LGF/L3.KW/H3.AQ (antibody, V domains shown, IgG) VH: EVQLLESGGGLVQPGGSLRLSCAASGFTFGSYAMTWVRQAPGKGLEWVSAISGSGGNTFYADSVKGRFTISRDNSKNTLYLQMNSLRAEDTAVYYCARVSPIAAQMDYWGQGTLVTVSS VL: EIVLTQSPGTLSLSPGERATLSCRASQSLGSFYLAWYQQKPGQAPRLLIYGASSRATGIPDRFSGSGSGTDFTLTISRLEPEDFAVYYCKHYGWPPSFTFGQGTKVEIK :: 0.000956
L3.NY/P6E01 (antibody, V domains shown, IgG) VH: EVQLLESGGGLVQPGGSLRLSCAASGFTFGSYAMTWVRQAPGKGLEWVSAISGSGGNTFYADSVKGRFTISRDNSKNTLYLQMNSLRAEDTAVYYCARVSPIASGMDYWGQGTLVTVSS VL: EIVLTQSPGTLSLSPGERATLSCRASQSVSSSYLAWYQQKPGQAPRLLIYGASSRATGIPDRFSGSGSGTDFTLTISRLEPEDFAVYYCQHYNYPPSFTFGQGTKVEIK :: 0.000384

Now for another entry.
input: Tell me the measured koff of L3.PY/P6E01 (antibody, V domains shown, IgG) VH: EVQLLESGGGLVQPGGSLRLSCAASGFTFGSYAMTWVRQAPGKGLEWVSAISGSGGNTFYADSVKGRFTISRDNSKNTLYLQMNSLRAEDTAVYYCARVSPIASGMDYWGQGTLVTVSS VL: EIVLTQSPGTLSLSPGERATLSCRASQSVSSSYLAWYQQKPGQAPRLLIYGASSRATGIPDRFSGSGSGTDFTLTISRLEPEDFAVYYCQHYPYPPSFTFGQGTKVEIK , please.
output: 0.000228
